Reference source for all entries: ChEMBL document CHEMBL1136016

- tgt: Adenosine receptors; A1 & A3 (Homo sapiens) (UniProt P30542+P0DMS8)
- assay_overview: Selectivity ratio (hA1/hA3)
- Type: protein assay
Give measured Ratio for each item. Keep answers brief.

Prompt line: # get_value(readout='Ratio', item= CCn1cc2c(nc(NC(=O)Nc3ccc(Br)cc3)n3nc(-c4ccco4)nc23)n1 )
Response line: 1350

Prompt line: // next record Cn1cc2c(nc(NC(=O)Nc3ccccc3Cl)n3nc(-c4ccco4)nc23)n1
Response line: 440

Prompt line: // next record CCn1cc2c(nc(NC(=O)Nc3ccc(S(=O)(=O)O)cc3)n3nc(-c4ccco4)nc23)n1
Response line: > 250

Prompt line: // next record CCCCn1cc2c(nc(NC(=O)Nc3ccccc3OC)n3nc(-c4ccco4)nc23)n1
Response line: 351

Prompt line: // next record CCCn1cc2c(nc(NC(=O)Nc3ccc(S(=O)(=O)O)cc3)n3nc(-c4ccco4)nc23)n1
Response line: > 333

Prompt line: // next record CCCCn1cc2c(nc(NC(=O)Nc3ccc(F)cc3)n3nc(-c4ccco4)nc23)n1
Response line: 398

Prompt line: // next record CCCCn1cc2c(nc(NC(=O)Cc3ccccc3)n3nc(-c4ccco4)nc23)n1
Response line: 542

Prompt line: // next record CCCCn1cc2c(nc(NC(=O)Nc3ccccc3)n3nc(-c4ccco4)nc23)n1
Response line: 1950

Prompt line: // next record CCCn1cc2c(nc(NC(=O)Nc3ccccc3Cl)n3nc(-c4ccco4)nc23)n1
Response line: 423

* * *

- tgt: Adenosine receptor A3 (Homo sapiens, UniProt P0DMS8)
- assay_overview: Displacement of [3H]MRE3008-F20 binding at human Adenosine A3 receptor expressed in HEK cells; range 0.82-1.01
- Type: cell-based, HEK293
measurement_name: Ki (nM)
Express it in nM; write the number only.

Prompt line: # get_value(readout='Ki', item= Cn1cc2c(nc(NC(=O)Nc3ccccc3Cl)n3nc(-c4ccco4)nc23)n1 )
Response line: 0.91

* * *

- tgt: Adenosine receptor A1 (Homo sapiens)
- assay_overview: Displacement of [3H]DPCPX from human Adenosine A1 receptor expressed in CHO cells; range 724-889
- Type: cell-based
measurement_name: pKi
For clarity, pKi is expressed as the negative log10 of concentration in mol/L.

Prompt line: # get_value(readout='pKi', item= CCn1cc2c(nc(NC(=O)Nc3ccc4c(c3)OCO4)n3nc(-c4ccco4)nc23)n1 )
Response line: 6.10

* * *

- tgt: Adenosine receptor A1 (Homo sapiens, UniProt P30542)
- Sequence (P30542 whole entry): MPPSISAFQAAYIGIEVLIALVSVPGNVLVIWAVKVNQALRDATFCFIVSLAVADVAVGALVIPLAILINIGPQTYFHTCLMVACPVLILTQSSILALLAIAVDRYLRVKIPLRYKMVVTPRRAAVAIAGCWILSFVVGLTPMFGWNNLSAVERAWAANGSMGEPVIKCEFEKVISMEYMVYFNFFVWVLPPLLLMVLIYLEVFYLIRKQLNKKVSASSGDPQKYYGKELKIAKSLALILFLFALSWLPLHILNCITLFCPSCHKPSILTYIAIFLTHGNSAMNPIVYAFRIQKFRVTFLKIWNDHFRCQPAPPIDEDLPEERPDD
- assay_overview: Displacement of [3H]DPCPX from human Adenosine A1 receptor expressed in CHO cells; range 253-401
- Assay type: cell-based
measurement_name: pKi
For clarity, pKi is expressed as the negative log10 of concentration in mol/L.

Prompt line: # get_value(readout='pKi', item= CCCCn1cc2c(nc(NC(=O)Nc3ccc(F)cc3)n3nc(-c4ccco4)nc23)n1 )
Response line: 6.50

* * *

- tgt: Adenosine receptor A2a (Homo sapiens)
- assay_overview: Displacement of [3H]SCH-58261 from human Adenosine A2A receptor expressed in HEK293 cells; range 51-55
- Assay type: cell-based
measurement_name: pKi
For clarity, pKi is expressed as the negative log10 of concentration in mol/L.

Prompt line: # get_value(readout='pKi', item= CCn1cc2c(nc(NC(=O)Nc3ccc(C(F)(F)F)cc3)n3nc(-c4ccco4)nc23)n1 )
Response line: 7.28

* * *

- tgt: Adenosine receptor A1 (Homo sapiens)
- assay_overview: Displacement of [3H]DPCPX from human Adenosine A1 receptor expressed in CHO cells; range 314-536
- Type: cell-based
measurement_name: Ki

Prompt line: # get_value(readout='Ki', item= CCCCn1cc2c(nc(NC(=O)Nc3ccc4c(c3)OCO4)n3nc(-c4ccco4)nc23)n1 )
Response line: 410 nM

* * *

- tgt: Adenosine receptor A2b (Homo sapiens)
- assay_overview: Displacement of [3H]-DPCPX from human Adenosine A2B receptor expressed in HEK293 cells; range 206-282
- Type: cell-based
measurement_name: pKi
For clarity, pKi is expressed as the negative log10 of concentration in mol/L.

Prompt line: # get_value(readout='pKi', item= CCCn1cc2c(nc(NC(=O)Nc3ccccc3)n3nc(-c4ccco4)nc23)n1 )
Response line: 6.62

* * *

- tgt: Adenosine receptor A2b (Homo sapiens, UniProt P29275)
- assay_overview: Displacement of [3H]DPCPX from human Adenosine A2B receptor expressed in HEK293 cells; range 65-94
- Type: cell-based
measurement_name: pKi
For clarity, pKi is expressed as the negative log10 of concentration in mol/L.

Prompt line: # get_value(readout='pKi', item= CCCCn1cc2c(nc(NC(=O)Nc3ccccc3Cl)n3nc(-c4ccco4)nc23)n1 )
Response line: 7.11

* * *

- tgt: Adenosine receptor A2b (Homo sapiens, UniProt P29275)
- Sequence (P29275 whole entry): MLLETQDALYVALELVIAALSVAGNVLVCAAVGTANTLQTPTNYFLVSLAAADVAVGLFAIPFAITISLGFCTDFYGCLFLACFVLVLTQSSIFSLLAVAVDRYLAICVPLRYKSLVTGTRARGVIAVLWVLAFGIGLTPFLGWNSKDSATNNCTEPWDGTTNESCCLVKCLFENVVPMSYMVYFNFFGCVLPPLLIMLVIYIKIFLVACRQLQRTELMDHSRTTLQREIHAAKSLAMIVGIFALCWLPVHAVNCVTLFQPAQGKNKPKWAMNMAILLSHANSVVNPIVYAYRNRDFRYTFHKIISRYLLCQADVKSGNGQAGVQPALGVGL
- assay_overview: Displacement of [3H]DPCPX from human Adenosine A2B receptor expressed in HEK293 cells; range 149-204
- Type: cell-based
measurement_name: Ki (nM)
Express it in nM; write the number only.

Prompt line: # get_value(readout='Ki', item= CCCn1cc2c(nc(NC(=O)Nc3cccc(OC)c3)n3nc(-c4ccco4)nc23)n1 )
Response line: 175

* * *

- tgt: Adenosine receptor A3 (Homo sapiens)
- assay_overview: Displacement of [3H]MRE3008-F20 from human Adenosine A3 receptor expressed in HEK cells; range 19-34
- Type: cell-based, HEK293
measurement_name: Ki

Prompt line: Can you look up Ki on Adenosine receptor A3 (Homo sapiens) for Cn1cc2c(nc(NC(=O)Nc3ccc(S(=O)(=O)O)cc3)n3nc(-c4ccco4)nc23)n1 ?
Response line: 25 nM

* * *

- tgt: Adenosine receptor A2a (Homo sapiens, UniProt P29274)
- Sequence (P29274 whole entry): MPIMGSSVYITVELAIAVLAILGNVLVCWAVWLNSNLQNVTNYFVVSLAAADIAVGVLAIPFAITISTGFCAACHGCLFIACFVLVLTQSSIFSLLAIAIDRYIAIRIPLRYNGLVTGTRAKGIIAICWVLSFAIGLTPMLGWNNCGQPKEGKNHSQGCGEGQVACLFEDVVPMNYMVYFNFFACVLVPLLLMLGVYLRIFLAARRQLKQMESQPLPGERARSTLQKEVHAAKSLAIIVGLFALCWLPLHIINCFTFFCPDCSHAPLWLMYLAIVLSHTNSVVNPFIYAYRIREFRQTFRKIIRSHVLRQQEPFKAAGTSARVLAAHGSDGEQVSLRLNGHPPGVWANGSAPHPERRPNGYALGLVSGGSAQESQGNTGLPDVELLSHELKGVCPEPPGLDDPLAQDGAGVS
- assay_overview: Displacement of [3H]SCH-58261 from human Adenosine A2A receptor expressed in HEK293 cells; range 300-414
- Type: cell-based
Give measured pKi for each item. Keep answers brief.
For clarity, pKi is expressed as the negative log10 of concentration in mol/L.

Prompt line: Can you look up pKi on Adenosine receptor A2a (Homo sapiens, UniProt P29274) for CCCCn1cc2c(nc(NC(=O)Nc3ccc(S(=O)(=O)O)cc3)n3nc(-c4ccco4)nc23)n1 ?
Response line: 6.45

Prompt line: // next record CCn1cc2c(nc(NC(=O)Nc3ccc(Cl)c(Cl)c3)n3nc(-c4ccco4)nc23)n1
Response line: 6.45

* * *

- tgt: Adenosine receptor A3 (Homo sapiens, UniProt P0DMS8)
- Sequence (P0DMS8 whole entry): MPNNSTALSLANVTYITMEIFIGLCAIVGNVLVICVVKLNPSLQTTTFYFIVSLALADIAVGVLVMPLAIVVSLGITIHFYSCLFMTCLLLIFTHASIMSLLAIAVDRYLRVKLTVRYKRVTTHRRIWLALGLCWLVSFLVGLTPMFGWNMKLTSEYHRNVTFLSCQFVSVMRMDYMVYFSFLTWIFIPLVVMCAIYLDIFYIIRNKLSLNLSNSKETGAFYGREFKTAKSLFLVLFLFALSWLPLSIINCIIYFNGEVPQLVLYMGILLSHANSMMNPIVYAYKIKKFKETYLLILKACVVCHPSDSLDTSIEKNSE
- assay_overview: biochemical
- Description: Displacement of [3H]MRE3008-F20 from human Adenosine A3 receptor expressed in HEK cells; range 0.15-0.28
measurement_name: pKi
For clarity, pKi is expressed as the negative log10 of concentration in mol/L.

Prompt line: # get_value(readout='pKi', item= CCn1cc2c(nc(NC(=O)Nc3ccc(Cl)cc3)n3nc(-c4ccco4)nc23)n1 )
Response line: 9.70

* * *

- tgt: Adenosine receptor A2a (Homo sapiens)
- assay_overview: Displacement of [3H]SCH-58261 from human Adenosine A2A receptor expressed in HEK293 cells; range 73-138
- Type: cell-based
measurement_name: Ki (nM)
Express it in nM; write the number only.

Prompt line: Can you look up Ki on Adenosine receptor A2a (Homo sapiens) for CCCn1cc2c(nc(NC(=O)Nc3ccccc3OC)n3nc(-c4ccco4)nc23)n1 ?
Response line: 100

* * *

- tgt: Adenosine receptor A2b (Homo sapiens)
- Sequence (P29275 whole entry): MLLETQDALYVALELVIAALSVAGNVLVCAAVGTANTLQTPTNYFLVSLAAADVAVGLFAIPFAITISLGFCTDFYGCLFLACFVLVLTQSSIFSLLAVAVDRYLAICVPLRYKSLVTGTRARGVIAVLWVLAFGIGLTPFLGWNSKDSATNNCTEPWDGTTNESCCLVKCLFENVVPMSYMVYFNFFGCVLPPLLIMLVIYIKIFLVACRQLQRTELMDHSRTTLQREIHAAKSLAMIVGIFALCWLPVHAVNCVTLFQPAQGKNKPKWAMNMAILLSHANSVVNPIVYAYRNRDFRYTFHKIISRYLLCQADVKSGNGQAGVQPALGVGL
- assay_overview: Displacement of [3H]DPCPX from human Adenosine A2B receptor expressed in HEK293 cells; range 183-278
- Assay type: cell-based
measurement_name: Ki

Prompt line: # get_value(readout='Ki', item= Cn1cc2c(nc(NC(=O)Nc3ccc(F)cc3)n3nc(-c4ccco4)nc23)n1 )
Response line: 226 nM
